Ratio Ki listing for selected molecules.
species on record: Homo sapiens; assay: Selectivity for human recombinant kappa opioid receptor over human recombinant mu opioid receptor
No unit in the answer, only the number.

**Query** Given the entry `COC(=O)[C@@H]1C[C@H](OC(=O)c2ccc(OC)cc2)C(=O)[C@H]2[C@@]1(C)CC[C@H]1C(=O)O[C@H](c3ccoc3)C[C@]21C` , report its measured Ratio Ki.
**Result** 0.12

**Query** Given the entry `COC(=O)[C@@H]1C[C@H](SC(=O)c2ccccc2)C(=O)[C@H]2[C@@]1(C)CC[C@H]1C(=O)O[C@H](c3ccoc3)C[C@]21C` , report its measured Ratio Ki.
**Result** 0.21

---

biological target: Mu-type opioid receptor (Homo sapiens, UniProt P35372); assay: Agonist activity at human recombinant mu opioid receptor expressed in CHO cells by [35S]GTP-gamma-S binding assay relative to DAMGO; type: functional, cell-based
Sequence (P35372 whole entry): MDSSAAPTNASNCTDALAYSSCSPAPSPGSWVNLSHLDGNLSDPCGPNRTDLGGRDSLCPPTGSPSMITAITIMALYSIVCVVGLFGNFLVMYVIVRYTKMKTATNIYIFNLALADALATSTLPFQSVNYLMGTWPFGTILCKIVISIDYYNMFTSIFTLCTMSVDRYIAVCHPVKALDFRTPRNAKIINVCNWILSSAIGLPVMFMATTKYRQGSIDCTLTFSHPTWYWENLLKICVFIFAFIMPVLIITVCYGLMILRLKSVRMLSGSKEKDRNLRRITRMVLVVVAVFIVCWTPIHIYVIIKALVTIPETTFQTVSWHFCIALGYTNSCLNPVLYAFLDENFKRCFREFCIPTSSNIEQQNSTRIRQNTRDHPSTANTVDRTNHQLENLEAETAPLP
Reported property: Emax (%)
I only need the number, in %, no unit after it.

Reference set (7 entries):
# Structure, Numeric value
records = [
    ("COC(=O)[C@@H]1C[C@H](OC(=O)c2cccs2)C(=O)[C@H]2[C@@]1(C)CC[C@H]1C(=O)O[C@H](c3ccoc3)C[C@]21C", 95),
    ("COC(=O)[C@@H]1C[C@H](OC(=O)c2cc3ccccc3o2)C(=O)[C@H]2[C@@]1(C)CC[C@H]1C(=O)O[C@H](c3ccoc3)C[C@]21C", 104),
    ("COC(=O)[C@@H]1C[C@H](OC(=O)c2ccc(Br)cc2)C(=O)[C@H]2[C@@]1(C)CC[C@H]1C(=O)O[C@H](c3ccoc3)C[C@]21C", 108),
    ("COC(=O)[C@@H]1C[C@H](OC(=O)c2cccc(OC)c2)C(=O)[C@H]2[C@@]1(C)CC[C@H]1C(=O)O[C@H](c3ccoc3)C[C@]21C", 72),
    ("COC(=O)[C@@H]1C[C@H](OC(=O)c2ccc([N+](=O)[O-])cc2)C(=O)[C@H]2[C@@]1(C)CC[C@H]1C(=O)O[C@H](c3ccoc3)C[C@]21C", 46),
    ("COC(=O)[C@@H]1C[C@H](OC(=O)c2ccsc2)C(=O)[C@H]2[C@@]1(C)CC[C@H]1C(=O)O[C@H](c3ccoc3)C[C@]21C", 108),
    ("COC(=O)[C@@H]1C[C@H](OC(=O)c2ccc(OC)cc2)C(=O)[C@H]2[C@@]1(C)CC[C@H]1C(=O)O[C@H](c3ccoc3)C[C@]21C", 94),
]

Moving on to another compound below.
**Query** Given the entry `COC(=O)[C@@H]1C[C@H](NC(=O)c2ccccc2)C(=O)[C@H]2[C@@]1(C)CC[C@H]1C(=O)O[C@H](c3ccoc3)C[C@]21C` , report its measured Emax.
**Result** 134

---

pEC50 listing for selected compounds.
target: Kappa-type opioid receptor (Homo sapiens, UniProt P41145); test: Agonist activity at human recombinant kappa opioid receptor expressed in CHO cells by [35S]GTP-gamma-S binding assay
Sequence (P41145 whole entry): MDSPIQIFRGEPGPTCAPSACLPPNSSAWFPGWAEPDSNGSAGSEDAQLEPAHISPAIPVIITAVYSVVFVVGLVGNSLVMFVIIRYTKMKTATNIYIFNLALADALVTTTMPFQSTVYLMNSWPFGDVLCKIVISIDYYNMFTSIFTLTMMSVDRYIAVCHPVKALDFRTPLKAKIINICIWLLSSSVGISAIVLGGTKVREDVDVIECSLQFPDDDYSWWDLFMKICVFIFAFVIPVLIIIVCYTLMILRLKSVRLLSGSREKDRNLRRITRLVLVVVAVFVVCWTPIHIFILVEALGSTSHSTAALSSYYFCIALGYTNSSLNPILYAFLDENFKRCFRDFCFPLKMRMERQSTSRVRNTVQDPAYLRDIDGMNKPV
pEC50 field: float, defined as -log10 of concentration (mol/L).

Reference set (4 entries):
# Structure, pEC50
measured = [
    ("COC(=O)[C@@H]1C[C@H](OC(=O)c2cccc(OC)c2)C(=O)[C@H]2[C@@]1(C)CC[C@H]1C(=O)O[C@H](c3ccoc3)C[C@]21C", 5.44),
    ("COC(=O)[C@@H]1C[C@H](OC(=O)c2cc3ccccc3o2)C(=O)[C@H]2[C@@]1(C)CC[C@H]1C(=O)O[C@H](c3ccoc3)C[C@]21C", 5.95),
    ("COC(=O)[C@@H]1C[C@H](NC(C)=O)C(=O)[C@H]2[C@@]1(C)CC[C@H]1C(=O)O[C@H](c3ccoc3)C[C@]21C", 6.92),
    ("COC(=O)[C@@H]1C[C@H](OC(=O)c2ccsc2)C(=O)[C@H]2[C@@]1(C)CC[C@H]1C(=O)O[C@H](c3ccoc3)C[C@]21C", 6.08),
]

Moving on to another compound below.
**Query** Given the entry `COC(=O)[C@@H]1C[C@H](OC(=O)c2ccc(OC)cc2)C(=O)[C@H]2[C@@]1(C)CC[C@H]1C(=O)O[C@H](c3ccoc3)C[C@]21C` , report its measured pEC50.
**Result** 5.58

---

Ratio Ki listing for selected molecules.
species: Homo sapiens; assay: Selectivity for human recombinant kappa opioid receptor over human recombinant delta opioid receptor
No unit in the answer, only the number.

Reference set (5 entries):
# Structure, Ratio Ki
data = [
    ("COC(=O)[C@@H]1C[C@H](SC(=O)c2ccccc2)C(=O)[C@H]2[C@@]1(C)CC[C@H]1C(=O)O[C@H](c3ccoc3)C[C@]21C", 1.4),
    ("COC(=O)[C@@H]1C[C@H](OC(=O)c2ccc(OC)cc2)C(=O)[C@H]2[C@@]1(C)CC[C@H]1C(=O)O[C@H](c3ccoc3)C[C@]21C", 3),
    ("COC(=O)[C@@H]1C[C@H](OC(=O)c2ccccc2)C(=O)[C@H]2[C@@]1(C)CC[C@H]1C(=O)O[C@H](c3ccoc3)C[C@]21C", 12),
    ("COC(=O)[C@@H]1C[C@H](OC(=O)c2cccc(OC)c2)C(=O)[C@H]2[C@@]1(C)CC[C@H]1C(=O)O[C@H](c3ccoc3)C[C@]21C", 2),
    ("COC(=O)[C@@H]1C[C@H](OC(=O)c2cc3ccccc3o2)C(=O)[C@H]2[C@@]1(C)CC[C@H]1C(=O)O[C@H](c3ccoc3)C[C@]21C", 8),
]

**Query** Given the entry `COC(=O)[C@@H]1C[C@H](OC(=O)c2cccs2)C(=O)[C@H]2[C@@]1(C)CC[C@H]1C(=O)O[C@H](c3ccoc3)C[C@]21C` , report its measured Ratio Ki.
**Result** 5

---

target: Kappa-type opioid receptor (Homo sapiens); assay: Displacement of [125I]IOXY from human recombinant kappa opioid receptor expressed in CHO cells
Ki listing for selected compounds.
I only need the number, in nM, no unit after it.

Reference set (2 entries):
# Structure, Reported property, Numeric value
measured = [
    ("COC(=O)[C@@H]1C[C@H](OC(=O)c2ccc([N+](=O)[O-])cc2)C(=O)[C@H]2[C@@]1(C)CC[C@H]1C(=O)O[C@H](c3ccoc3)C[C@]21C", "Ki", 570),
    ("COC(=O)[C@@H]1C[C@H](OC(=O)c2ccc3ccccc3c2)C(=O)[C@H]2[C@@]1(C)CC[C@H]1C(=O)O[C@H](c3ccoc3)C[C@]21C", "Ki", 5490),
]

**Query** Given the entry `COC(=O)[C@@H]1C[C@H](OC(=O)c2cccc3ccccc23)C(=O)[C@H]2[C@@]1(C)CC[C@H]1C(=O)O[C@H](c3ccoc3)C[C@]21C` , report its measured Ki.
**Result** 410

**Query** Given the entry `COC(=O)[C@@H]1C[C@H](NC(C)=O)C(=O)[C@H]2[C@@]1(C)CC[C@H]1C(=O)O[C@H](c3ccoc3)C[C@]21C` , report its measured Ki.
**Result** 30

**Query** Given the entry `COC(=O)[C@@H]1C[C@H](OC(=O)c2ccccc2OC)C(=O)[C@H]2[C@@]1(C)CC[C@H]1C(=O)O[C@H](c3ccoc3)C[C@]21C` , report its measured Ki.
**Result** 230

**Query** Given the entry `COC(=O)[C@@H]1C[C@H](OC(=O)c2cccc(OC)c2)C(=O)[C@H]2[C@@]1(C)CC[C@H]1C(=O)O[C@H](c3ccoc3)C[C@]21C` , report its measured Ki.
**Result** 550

---

Ki listing for selected molecules.
biological target: Mu-type opioid receptor (Homo sapiens); assay: Displacement of [125I]IOXY from human recombinant mu opioid receptor expressed in CHO cells
I only need the number, in nM, no unit after it.

**Query** Given the entry `COC(=O)[C@@H]1C[C@H](OC(=O)c2cccc(OC)c2)C(=O)[C@H]2[C@@]1(C)CC[C@H]1C(=O)O[C@H](c3ccoc3)C[C@]21C` , report its measured Ki.
**Result** 30

**Query** Given the entry `COC(=O)[C@@H]1C[C@H](OC(=O)c2ccc([N+](=O)[O-])cc2)C(=O)[C@H]2[C@@]1(C)CC[C@H]1C(=O)O[C@H](c3ccoc3)C[C@]21C` , report its measured Ki.
**Result** 260

**Query** Given the entry `COC(=O)[C@@H]1C[C@H](OC(=O)c2ccc3ccccc3c2)C(=O)[C@H]2[C@@]1(C)CC[C@H]1C(=O)O[C@H](c3ccoc3)C[C@]21C` , report its measured Ki.
**Result** 180

---

organism: Homo sapiens; experiment: Selectivity for human recombinant kappa opioid receptor over human recombinant delta opioid receptor
Ratio Ki listing for selected molecules.

# Structure, Result
measured = [
    ("COC(=O)[C@@H]1C[C@H](NS(C)(=O)=O)C(=O)[C@H]2[C@@]1(C)CC[C@H]1C(=O)O[C@H](c3ccoc3)C[C@]21C", "> 38"),
    ("COC(=O)[C@@H]1C[C@H](OC(=O)c2cccc3ccccc23)C(=O)[C@H]2[C@@]1(C)CC[C@H]1C(=O)O[C@H](c3ccoc3)C[C@]21C", "> 24"),
]

Moving on to another molecule below.
**Query** Given the entry `COC(=O)[C@@H]1C[C@H](OC(=O)c2ccc(Br)cc2)C(=O)[C@H]2[C@@]1(C)CC[C@H]1C(=O)O[C@H](c3ccoc3)C[C@]21C` , report its measured Ratio Ki.
**Result** 2

Sourced from ChEMBL document CHEMBL1144846
